target: beta-catenin-B-cell lymphoma 9 protein complex (Homo sapiens); test: Inhibition of N-terminal His6-tagged full-length recombinant beta-catenin (1 to 781 residues) (unknown origin) expressed in Escherichia coli BL21 DE3/N-terminal FAM tagged BCL9 HD2(350 to 375 residues) (unknown origin) protein-protein interaction assessed as inhibition constant incubated for 3 hrs by competitive fluorescence polarization assay
Sequence (P35222 whole entry, the tested form may be a part): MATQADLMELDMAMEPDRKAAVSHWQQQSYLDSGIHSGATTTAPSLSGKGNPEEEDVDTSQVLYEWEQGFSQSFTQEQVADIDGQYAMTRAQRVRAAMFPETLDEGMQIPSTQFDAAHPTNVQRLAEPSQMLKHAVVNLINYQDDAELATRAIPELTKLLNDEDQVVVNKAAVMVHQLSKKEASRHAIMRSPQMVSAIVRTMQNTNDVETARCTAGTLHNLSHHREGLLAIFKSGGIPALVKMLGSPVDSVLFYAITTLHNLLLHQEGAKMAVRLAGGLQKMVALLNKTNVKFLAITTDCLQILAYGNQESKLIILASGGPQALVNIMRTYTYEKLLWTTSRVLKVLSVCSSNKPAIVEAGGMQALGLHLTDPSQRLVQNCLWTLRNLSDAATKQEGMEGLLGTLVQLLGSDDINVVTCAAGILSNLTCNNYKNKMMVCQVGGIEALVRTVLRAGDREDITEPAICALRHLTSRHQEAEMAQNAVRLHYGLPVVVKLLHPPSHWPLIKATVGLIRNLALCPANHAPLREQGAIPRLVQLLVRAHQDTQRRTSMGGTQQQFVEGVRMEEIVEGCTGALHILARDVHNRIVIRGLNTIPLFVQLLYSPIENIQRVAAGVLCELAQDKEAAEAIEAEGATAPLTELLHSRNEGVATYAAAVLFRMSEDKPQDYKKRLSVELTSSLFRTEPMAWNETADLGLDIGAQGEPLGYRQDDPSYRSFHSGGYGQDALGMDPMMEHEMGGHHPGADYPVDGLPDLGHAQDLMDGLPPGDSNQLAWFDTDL
Sequence (O00512 whole entry, further chain, the tested form may be a part): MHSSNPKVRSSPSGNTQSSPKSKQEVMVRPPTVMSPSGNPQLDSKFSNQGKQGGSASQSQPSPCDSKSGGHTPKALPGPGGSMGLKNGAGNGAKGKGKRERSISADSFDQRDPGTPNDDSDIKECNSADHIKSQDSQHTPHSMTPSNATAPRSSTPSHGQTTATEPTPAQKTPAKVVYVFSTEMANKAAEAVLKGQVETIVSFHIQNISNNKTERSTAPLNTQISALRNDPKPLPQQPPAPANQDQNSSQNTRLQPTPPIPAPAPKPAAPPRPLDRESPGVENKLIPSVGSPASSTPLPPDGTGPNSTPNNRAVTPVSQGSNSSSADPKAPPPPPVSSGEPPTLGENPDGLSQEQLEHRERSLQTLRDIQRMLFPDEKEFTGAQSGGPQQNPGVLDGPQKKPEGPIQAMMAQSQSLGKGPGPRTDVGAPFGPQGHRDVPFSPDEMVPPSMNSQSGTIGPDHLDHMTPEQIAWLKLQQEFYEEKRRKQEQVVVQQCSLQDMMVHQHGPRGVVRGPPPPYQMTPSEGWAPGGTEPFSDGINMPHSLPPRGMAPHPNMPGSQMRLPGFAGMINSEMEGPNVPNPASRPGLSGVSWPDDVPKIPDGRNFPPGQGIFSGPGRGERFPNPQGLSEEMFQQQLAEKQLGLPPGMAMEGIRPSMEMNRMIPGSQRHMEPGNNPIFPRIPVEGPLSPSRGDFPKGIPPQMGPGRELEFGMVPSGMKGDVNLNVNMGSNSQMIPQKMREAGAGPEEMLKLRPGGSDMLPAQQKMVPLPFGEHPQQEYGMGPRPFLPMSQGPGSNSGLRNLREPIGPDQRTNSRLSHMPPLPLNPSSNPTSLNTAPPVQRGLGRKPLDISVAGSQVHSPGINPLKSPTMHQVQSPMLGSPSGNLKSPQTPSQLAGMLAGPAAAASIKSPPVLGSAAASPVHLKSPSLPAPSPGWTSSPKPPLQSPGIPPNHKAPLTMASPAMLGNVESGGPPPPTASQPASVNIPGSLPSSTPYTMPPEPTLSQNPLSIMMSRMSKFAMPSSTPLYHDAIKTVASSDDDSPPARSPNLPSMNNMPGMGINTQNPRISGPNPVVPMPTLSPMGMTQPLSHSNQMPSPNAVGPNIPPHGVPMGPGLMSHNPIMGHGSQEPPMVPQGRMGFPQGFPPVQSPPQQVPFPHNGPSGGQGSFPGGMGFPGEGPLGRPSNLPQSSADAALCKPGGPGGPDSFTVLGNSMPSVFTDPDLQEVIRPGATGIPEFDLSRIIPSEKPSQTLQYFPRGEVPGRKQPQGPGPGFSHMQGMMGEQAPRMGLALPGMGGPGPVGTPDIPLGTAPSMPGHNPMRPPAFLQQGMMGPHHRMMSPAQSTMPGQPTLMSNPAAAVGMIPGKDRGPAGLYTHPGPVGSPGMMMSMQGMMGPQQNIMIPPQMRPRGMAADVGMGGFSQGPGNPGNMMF
MEASURED_METRIC: IC50 (µM)

COMPOUND	MEASURED_METRIC	OBSERVED_MEASUREMENT
CC(C)c1ccc(-c2cccc(S(=O)(=O)N3CCCC(c4cccc(OC(C)(C)C(=O)NS(=O)(=O)c5cccc(C(F)(F)F)c5)c4)C3)c2)cc1 (configuration not stated)	IC50	2.47
CC(C)(Oc1cccc(C2CCCN(S(=O)(=O)c3cccc(-c4ccccc4)c3)C2)c1)C(=O)O (configuration not stated)	IC50	8.3
CC(C)c1ccc(/C=C/C(=O)N2CCCC(c3cccc(OC(C)(C)C(=O)O)c3)C2)cc1 (configuration not stated)	IC50	5.39

[I] COc1ccc(S(=O)(=O)NC(=O)C(C)(C)Oc2cccc(C3CCCN(S(=O)(=O)c4cccc(-c5ccc(C(C)C)cc5)c4)C3)c2)cc1 (configuration not stated)
[II] CC(C)c1ccc(-c2cccc(S(=O)(=O)N3CCCC(c4cccc(OC(C)(C)C(=O)NS(=O)(=O)c5ccc(C#N)cc5)c4)C3)c2)cc1 (configuration not stated)
[III] Cc1ccc(COC(=O)N2CCCC(c3cccc(OC(C)(C)C(=O)O)c3)C2)cc1 (configuration not stated)
Put the entries in order of IC50, starting with the largest number. Rank them, then answer with their labels in that order.
III, I, II

[I] CC(C)(Oc1cccc(C2CCCN(S(=O)(=O)c3cccc(-c4ccc(C(C)(C)C)cc4)c3)C2)c1)C(=O)O (configuration not stated)
[II] COc1ccc(COC(=O)N2CCCC(c3cccc(OC(C)(C)C(=O)O)c3)C2)cc1 (configuration not stated)
Kindly identify the item with the lower IC50 figure among these two: I and II Let me know the label of the one you choose.
I

# credit: ChEMBL document CHEMBL5316313
